target.or.test.system: MMP-3 (Homo sapiens, UniProt P08254)
Construct: purchased AnaSpec (Fremont, CA, USA)
Sequence (P08254 100-477): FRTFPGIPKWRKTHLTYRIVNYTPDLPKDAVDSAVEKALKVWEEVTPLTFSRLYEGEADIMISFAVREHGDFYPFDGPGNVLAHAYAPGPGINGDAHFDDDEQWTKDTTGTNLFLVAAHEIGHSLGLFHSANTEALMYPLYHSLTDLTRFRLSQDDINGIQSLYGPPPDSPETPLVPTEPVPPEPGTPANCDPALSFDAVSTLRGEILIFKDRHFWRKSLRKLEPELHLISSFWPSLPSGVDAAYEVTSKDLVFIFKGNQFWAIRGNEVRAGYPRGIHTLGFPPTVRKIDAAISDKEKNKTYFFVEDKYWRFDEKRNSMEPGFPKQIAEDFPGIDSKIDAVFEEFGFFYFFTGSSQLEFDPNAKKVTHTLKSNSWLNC
test.description: MMP-3 inhibition assay
Assay type: biochemical
condition.summary: 100 μM; read-out: % inhibition MMP-3
recorded.metric: inhibition at 100 µM

Reference set, count: 3
Cc1ccc(NC(=O)C(CC(C)C)C(=O)NO)cc1 (stereo not shown) [Compound 3g]: 16%
Cc1ccc(NC(=O)C(CC(C)C)S(=O)(=O)O)cc1 (stereo not shown) [Compound 3i]: < 10%
Cc1ccc(NC(=O)C(CC(C)C)n2ccnn2)cc1 (stereo not shown) [Compound 3l]: < 10%

Okay, now this compound:
The compound listed as Cc1ccc(NC(=O)C(CC(C)C)n2nccn2)cc1 (stereo not shown) [Compound 3m] has a reported inhibition at 100 µM of < 10%

====

test.description: Lipophilicity determination (LogD7.4, HPLC-MS)
Type: physicochemical
condition.summary: pH 7.4, pH 7.4, chromatographic
recorded.metric: chromatographic logD
One number for each entry.

CC(C)CC(C(=O)Nc1ccc(C#N)cc1)P(=O)(O)O (stereo not drawn): -0.87
Cc1ccc(NC(=O)C(CC(C)C)S(=O)(=O)O)cc1 (stereo not drawn): -0.64

# next molecule below
Reported chromatographic logD ( CC(C)CC(C(=O)Nc1ccc(F)cc1)P(=O)(O)O (stereo not drawn) ) = -0.79

====

test.description: in vivo
condition.summary: male, CD-1, mouse, ELF/plasma, inhaled; mice, nebulization 10 mg/kg; read-out: ELF/plasma ratio
recorded.metric: Kp

# compound CC(C)CC(C(=O)Nc1ccc(C(F)(F)F)cc1)P(=O)(O)O (stereo not shown) ; its Kp = 6.12

====

test.description: in vivo
condition.summary: male, CD-1, mouse, inhaled or intranasal; mice, nebulization 10 mg/kg, plasma
recorded.metric: CL/F (mL/min/kg)
Numbers only, in mL/min/kg.

Documented CL/F of CC(C)CC(C(=O)Nc1ccc(C(F)(F)F)cc1)P(=O)(O)O (stereo not shown) [Compound 4b] : 20.7

====

test.description: in vivo
condition.summary: male, CD-1, mouse, epithelial lining fluid (ELF), inhaled or intranasal; mice, nebulization 10 mg/kg; read-out: AUC 0-t ELF
recorded.metric: AUC(0-t) (ng·h/mL)
Numbers only, in ng·h/mL.

Noted for CC(C)CC(C(=O)Nc1ccc(C(F)(F)F)cc1)P(=O)(O)O (stereo not shown) : its AUC(0-t) reads 49700

====

target.or.test.system: LasB (Pseudomonas aeruginosa, UniProt Q02RJ6)
Construct: made in house
Sequence (Q02RJ6 198-498): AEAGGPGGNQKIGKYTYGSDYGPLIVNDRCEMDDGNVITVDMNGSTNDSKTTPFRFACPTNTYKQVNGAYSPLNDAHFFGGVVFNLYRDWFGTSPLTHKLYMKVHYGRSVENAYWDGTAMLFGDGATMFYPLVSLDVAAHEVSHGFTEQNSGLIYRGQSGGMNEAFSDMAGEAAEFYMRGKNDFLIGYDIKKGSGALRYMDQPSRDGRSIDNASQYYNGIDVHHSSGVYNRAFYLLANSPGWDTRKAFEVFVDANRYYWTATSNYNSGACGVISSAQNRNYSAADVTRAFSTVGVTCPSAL
test.description: biochemical
Assay type: biochemical
condition.summary: LasB IC50, FRET-based assay
Give IC50 for every item shown.
Numbers only, in nM.

Cc1ccc(NC(=O)C(CC(C)C)S(=O)(=O)O)cc1 (stereo not drawn): 16000

For the next question, use this compound.
The measured IC50 that CCCC(C(=O)Nc1ccc(OC)cc1)P(=O)(O)O (stereo not drawn) showed for LasB (Pseudomonas aeruginosa, UniProt Q02RJ6) is 1110

====

test.description: Plasma stability, mouse
Assay type: in vitro ADME
condition.summary: mouse plasma; read-out: Plasma T1/2 Mouse
Would you mind telling me the reported half-life at 1 μM of each entry?

CC(C)CC(C(=O)Nc1ccc(F)cc1)P(=O)(O)O (centres unmarked) [Compound 4h]: > 2.5 h
Cc1ccc(NC(=O)C(CC(C)C)n2ccnn2)cc1 (centres unmarked) [Compound 3l]: > 2.5 h
Cc1ccc(NC(=O)C(CC(C)C)C(=O)NO)cc1 (centres unmarked) [Compound 3g]: > 2.5 h
CC(C)CC(C(=O)Nc1ccc(C#N)cc1)P(=O)(O)O (centres unmarked) [Compound 4k]: > 2.5 h
Cc1ccc(NC(=O)C(CC(C)C)S(=O)(=O)O)cc1 (centres unmarked) [Compound 3i]: > 2.5 h

Below are some compounds; for each one, tell me its half-life at 1 μM.
1. CC(C)CC(C(=O)Nc1ccc(C(F)(F)F)cc1)P(=O)(O)O (centres unmarked) [Compound 4b]
2. Cc1ccc(NC(=O)C(CC(C)C)n2nccn2)cc1 (centres unmarked) [Compound 3m]
3. Cc1ccc(NC(=O)C(CC(C)C)P(=O)(O)O)cc1 (centres unmarked) [Compound 4a]

RESULT:
["> 2.5 h", "> 2.5 h", "> 2.5 h"]
